Each item that follows carries a reported Cell Viability.
- Tested on: Colon cancer organoid
- method_notes: Optimized Dual-Glo assay to identify co-culture induced drug vulnerabilities using donated chemical probes and chemogenomics kinase set in O06 CRC organoid and F06 CAF mono and co-culture. […] Cell viability is reported both mono and co-culture models.
- Type: functional, Homo sapiens
- Set-up: dose or concentration left out as unconfirmed
- condition_summary: Culture type Co-Culture; Transduced with Renilla-dsRed lentivirus
Express it in %; write the number only.

A selection of reference data follows.
>>> result("CCCOc1ccn2c(C(C)=O)cc(-c3ccccc3S(C)(=O)=O)c2c1")
129.269
>>> result("CC(=O)N1CCC(c2ccc(C(=O)NC3=NCCN3)cc2C(F)(F)F)CC1")
143.254
>>> result("Cc1c(C(=O)Nc2ccc(Oc3ccnc4[nH]cc(-c5ccccc5)c34)c(F)c2)c(=O)n(-c2ccc(F)cc2)n1C")
56.2803
>>> result("O=C(/C=C/N1C[C@H]2C[C@@H]1CN2c1ccccn1)c1ccccc1O")
121.159
>>> result("COc1cc(C(=O)N2CC[C@@H](O)[C@@H](N)C2)cc2nc(-c3cc4ccccc4n3CC3CC3)n(C)c12.Cl")
121.721
>>> result("COc1cc(Nc2ccnc3ccc(Br)cc23)cc(OC)c1OC")
144.697

(Q) Which value of Cell Viability has been reported for CCC(=N\O)/C(C)=C/c1ccc(F)c(C)c1 in the records?
(A) 151.161

(Q) Which Cell Viability value belongs to CS(=O)(=O)N1CCN(Cc2cc3nc(-c4cccc5[nH]ncc45)nc(N4CCOCC4)c3s2)CC1 ?
(A) 60.0718

(Q) Looking for the measured Cell Viability of CC[C@@H]1CN(C(=O)NCC(F)(F)F)C[C@@H]1c1cnc2cnc3[nH]ccc3n12 , can you help?
(A) 86.3482

(Q) # get_value(readout='Cell Viability', item= CCC(=O)N[C@@H]1CC[C@H](C(=O)N(C)c2ccc(-c3nc4ccccc4o3)cc2)C1 )
(A) 173.184

(Q) Quick one: Cell Viability of CC(C)Oc1ccc(-c2c[nH]cc2CN(C)CCO)cc1 ?
(A) 114.959

(Q) Any idea what its Cell Viability is? The compound is C[C@H](NC(=O)c1cnc2n1[C@](C)(Cc1ccc(C#N)cc1)C(=O)N2c1cc(Cl)c(F)c(Cl)c1)C(=O)NC1(c2ccccn2)CC1
(A) 151.567

(Q) Name the reported Cell Viability value associated with the compound COc1cc(C#N)ccc1S(=O)(=O)Nc1ccc2c(c1)cc(C)c(=O)n2C
(A) 111.598

(Q) # query: Cell Viability of entry O=C(NOCC1CC1)c1ccc(F)c(F)c1Nc1ccc(I)cc1Cl
(A) 73.8424

(Q) If you can, please state the reported Cell Viability value of COc1cc(Nc2ncc3c(n2)-c2ccc(Cl)cc2C(c2c(F)cccc2OC)=NC3)ccc1C(=O)O .
(A) 286.415

(Q) What does the record list as Cell Viability for CN1C(=O)c2sccc2N(C)c2nc(Nc3ccc(S(N)(=O)=O)cc3)ncc21 ?
(A) 57.2364

(Q) Consider the compound CN([C@@H]1CCc2c(CC(=O)O)c3ccccc3n2C1)S(=O)(=O)c1ccc(F)cc1 and give its measured Cell Viability.
(A) 149.477

(Q) Fill in: Cell Viability of O=c1nc(-c2ccccn2)sc2ccccc12 is ___
(A) 152.299
